tested.on: SMARCA2-HiBiT HeLa cells (protein which is expressed from the SMARCA2 gene) (Homo sapiens, UniProt P51531)
Construct: protein which is expressed from the SMARCA2 and SMARCA4 genes; host or cells: HeLa (SMARCA2-HiBiT engineered line)
Sequence (P51531 whole entry): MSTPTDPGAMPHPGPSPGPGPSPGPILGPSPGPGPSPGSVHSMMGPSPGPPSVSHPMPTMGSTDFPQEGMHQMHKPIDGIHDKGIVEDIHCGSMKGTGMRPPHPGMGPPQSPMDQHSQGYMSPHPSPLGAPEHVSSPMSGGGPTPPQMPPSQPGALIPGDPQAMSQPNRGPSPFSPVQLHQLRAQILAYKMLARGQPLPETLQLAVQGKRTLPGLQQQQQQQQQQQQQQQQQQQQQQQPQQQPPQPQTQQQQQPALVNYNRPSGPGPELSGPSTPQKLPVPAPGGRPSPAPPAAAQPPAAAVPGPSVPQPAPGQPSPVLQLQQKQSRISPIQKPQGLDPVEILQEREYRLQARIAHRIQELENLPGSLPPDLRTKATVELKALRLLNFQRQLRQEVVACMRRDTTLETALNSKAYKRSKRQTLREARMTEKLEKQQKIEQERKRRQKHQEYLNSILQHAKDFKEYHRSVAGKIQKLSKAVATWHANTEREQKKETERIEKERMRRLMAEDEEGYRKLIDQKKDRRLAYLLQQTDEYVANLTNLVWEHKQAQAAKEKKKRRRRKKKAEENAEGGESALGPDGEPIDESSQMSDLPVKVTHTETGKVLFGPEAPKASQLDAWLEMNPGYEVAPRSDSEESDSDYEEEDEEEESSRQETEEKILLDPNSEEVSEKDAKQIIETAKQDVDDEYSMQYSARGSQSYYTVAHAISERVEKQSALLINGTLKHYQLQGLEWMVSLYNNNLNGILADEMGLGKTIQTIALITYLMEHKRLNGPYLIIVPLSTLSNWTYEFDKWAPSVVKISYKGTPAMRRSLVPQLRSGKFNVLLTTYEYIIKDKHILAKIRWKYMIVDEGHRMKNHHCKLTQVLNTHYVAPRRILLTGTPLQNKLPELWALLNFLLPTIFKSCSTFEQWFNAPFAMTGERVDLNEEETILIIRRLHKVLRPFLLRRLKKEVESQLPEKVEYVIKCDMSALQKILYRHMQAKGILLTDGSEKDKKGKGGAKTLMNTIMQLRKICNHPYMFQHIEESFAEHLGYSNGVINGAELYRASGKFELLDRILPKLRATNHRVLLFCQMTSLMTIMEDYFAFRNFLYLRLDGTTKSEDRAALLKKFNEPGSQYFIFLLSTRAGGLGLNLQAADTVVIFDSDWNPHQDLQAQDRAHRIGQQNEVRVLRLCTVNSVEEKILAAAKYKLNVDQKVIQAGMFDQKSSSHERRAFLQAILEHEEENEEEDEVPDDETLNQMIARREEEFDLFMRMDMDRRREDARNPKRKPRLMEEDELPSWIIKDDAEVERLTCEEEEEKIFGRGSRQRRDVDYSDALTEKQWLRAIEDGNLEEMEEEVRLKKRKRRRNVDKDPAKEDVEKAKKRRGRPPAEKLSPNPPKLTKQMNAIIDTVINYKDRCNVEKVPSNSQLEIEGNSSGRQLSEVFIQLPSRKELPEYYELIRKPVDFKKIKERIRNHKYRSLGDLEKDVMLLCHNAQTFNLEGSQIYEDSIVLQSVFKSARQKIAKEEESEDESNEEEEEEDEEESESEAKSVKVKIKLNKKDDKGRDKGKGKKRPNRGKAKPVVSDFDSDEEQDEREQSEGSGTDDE
experiment: SMARCA2 degradation assay (HiBiT-fusion HeLa cell line, 24 h, luminescence)
Format: cell-based
Measured DC50 accompanies every entry in the list below.

Record excerpt, results attached:
molecule	DC50
C[C@@H]1CN(c2cc(-c3ccccc3O)nnc2N)CCN1c1ccnc(C#CCNC(=O)c2cc3ncccn3n2)n1	< 50 nM
C[C@@H]1CCN(c2cc(-c3ccccc3O)nnc2N)CCN1c1ccnc(C#CC2CN(CC(F)(F)F)C2)n1	< 50 nM
Nc1nnc(-c2ccccc2O)cc1N1CCCN(c2ccnc(C#CCN3CCOC4(CCCC4)C3)n2)CC1	50 to 500 nM
C[C@@H]1CN(c2ccnc(C#CCNC(=O)c3cc4ncccn4n3)n2)CCN1c1cc(-c2ccccc2O)nnc1N	> 5000 nM
CO[C@@H]1CCN(CC#Cc2nccc(N3CCN(c4cc(-c5ccccc5O)nnc4N)CC[C@H]3C)n2)C1	< 50 nM
Cc1nn2ccn(CC#Cc3nccc(N4C[C@H]5C[C@@H]4CN5c4cc(-c5ccccc5O)nnc4N)n3)c(=O)c2c1C	50 to 500 nM

Let us examine a further case.
## Task // query DC50 value for entry NCC#Cc1nccc(N2CC3CN(c4cc(-c5ccccc5O)nnc4N)C3C2)n1 (stereo not shown)
## Result 500 to 5000 nM

----------
tested.on: SMARCA4-HiBiT HeLa cells (protein which is expressed from the SMARCA4 gene) (Homo sapiens)
Construct: protein which is expressed from the SMARCA2 and SMARCA4 genes; host or cells: HeLa (SMARCA4-HiBiT engineered line)
experiment: SMARCA4 degradation assay (HiBiT-fusion HeLa cell line, 24 h, luminescence)
Type: cell-based
condition.notes: @ 1 μM
metric.name: inhibition at 1 µM

Record excerpt, results attached:
molecule	metric.name	result
CC(C)(C)OC(=O)NCC#Cc1nccc(N2CCCN(c3cc(-c4ccccc4O)nnc3N)CC2)n1 [Compound P-121]	inhibition at 1 µM	> 70%
Nc1nnc(-c2ccccc2O)cc1N1CCCN(c2ccnc(C#CCN3CCCC3=O)n2)CC1 [Compound P-372]	inhibition at 1 µM	30 to 70%

## Task Fill in the recorded inhibition at 1 µM for this molecule, with SMARCA4-HiBiT HeLa cells (protein which is expressed from the SMARCA4 gene) (Homo sapiens) as test system: C[C@H]1CN(c2ccnc(C#CCNC(=O)c3cc4ncccn4n3)n2)CCN1c1cc(-c2ccccc2O)nnc1N [Compound P-48]
## Result 30 to 70%

## Task Now the molecule CN(CC#Cc1nccc(N2CCCN(c3cc(-c4ccccc4O)nnc3N)CC2)n1)C(=O)c1cc2ncccn2n1 [Compound P-24]
## Result > 70%

----------
tested.on: SMARCA4-HiBiT HeLa cells (protein which is expressed from the SMARCA4 gene) (Homo sapiens, UniProt P51532)
Construct: protein which is expressed from the SMARCA2 and SMARCA4 genes; host or cells: HeLa (SMARCA4-HiBiT engineered line)
Sequence (P51532 whole entry): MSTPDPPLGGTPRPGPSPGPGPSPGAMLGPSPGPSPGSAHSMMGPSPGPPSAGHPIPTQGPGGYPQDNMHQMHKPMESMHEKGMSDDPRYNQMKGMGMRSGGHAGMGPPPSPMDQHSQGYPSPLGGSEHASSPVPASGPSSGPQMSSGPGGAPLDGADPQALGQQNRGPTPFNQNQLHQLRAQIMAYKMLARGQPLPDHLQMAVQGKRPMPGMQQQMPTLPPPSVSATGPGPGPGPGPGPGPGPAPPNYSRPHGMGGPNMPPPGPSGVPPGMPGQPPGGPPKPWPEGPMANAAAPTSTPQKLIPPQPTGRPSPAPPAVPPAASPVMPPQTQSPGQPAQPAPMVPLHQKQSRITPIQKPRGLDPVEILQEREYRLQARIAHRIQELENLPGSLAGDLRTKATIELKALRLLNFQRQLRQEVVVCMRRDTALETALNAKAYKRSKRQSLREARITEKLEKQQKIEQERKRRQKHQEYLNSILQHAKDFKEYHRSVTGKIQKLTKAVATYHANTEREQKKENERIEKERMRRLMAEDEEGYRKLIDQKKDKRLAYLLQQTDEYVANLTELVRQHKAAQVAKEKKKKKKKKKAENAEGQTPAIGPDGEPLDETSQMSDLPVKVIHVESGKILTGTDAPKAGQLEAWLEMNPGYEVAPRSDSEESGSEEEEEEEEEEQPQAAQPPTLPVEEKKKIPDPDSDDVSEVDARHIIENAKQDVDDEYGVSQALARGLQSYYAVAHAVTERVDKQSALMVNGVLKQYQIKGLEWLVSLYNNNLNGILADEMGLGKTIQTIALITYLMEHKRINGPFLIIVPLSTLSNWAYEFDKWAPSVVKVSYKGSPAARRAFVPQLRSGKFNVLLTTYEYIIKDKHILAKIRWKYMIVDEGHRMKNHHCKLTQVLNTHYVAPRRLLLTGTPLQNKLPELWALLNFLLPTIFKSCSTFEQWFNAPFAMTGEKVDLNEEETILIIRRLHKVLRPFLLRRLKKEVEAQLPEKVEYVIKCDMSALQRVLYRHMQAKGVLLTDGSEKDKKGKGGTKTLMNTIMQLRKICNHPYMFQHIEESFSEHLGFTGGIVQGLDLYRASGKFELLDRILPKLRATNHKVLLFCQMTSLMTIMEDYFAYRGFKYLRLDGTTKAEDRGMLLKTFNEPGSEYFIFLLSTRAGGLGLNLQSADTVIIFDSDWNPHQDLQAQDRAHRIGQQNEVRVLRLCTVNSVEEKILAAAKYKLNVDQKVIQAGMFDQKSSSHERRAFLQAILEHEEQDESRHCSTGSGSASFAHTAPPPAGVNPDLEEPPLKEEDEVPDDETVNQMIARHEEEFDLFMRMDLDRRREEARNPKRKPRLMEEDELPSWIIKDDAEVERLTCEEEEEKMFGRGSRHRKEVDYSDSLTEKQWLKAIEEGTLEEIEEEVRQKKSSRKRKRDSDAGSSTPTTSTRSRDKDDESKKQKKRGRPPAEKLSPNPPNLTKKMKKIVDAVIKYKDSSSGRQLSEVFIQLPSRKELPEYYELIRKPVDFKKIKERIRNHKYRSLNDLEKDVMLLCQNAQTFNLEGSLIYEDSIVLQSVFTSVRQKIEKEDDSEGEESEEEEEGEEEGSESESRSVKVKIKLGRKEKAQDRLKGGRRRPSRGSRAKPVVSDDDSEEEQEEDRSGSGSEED
experiment: SMARCA4 degradation assay (HiBiT-fusion HeLa cell line, 24 h, luminescence)
Type: cell-based
Source text: SMARCA2 and SMARCA4 Degradation Assay Degradation of protein which is expressed from the SMARCA2 and SMARCA4 genes was monitored using engineered HiBiT-fusion HeLa cell lines from Promega. […] 24-hours post-treatment, protein levels were quantified with the addition of HiBiT lytic buffer, LgBiT protein, and HiBiT substrate, according to manufacturer's specifications. […]
Measured DC50 accompanies every entry in the list below.

molecule	DC50
C[C@@H]1CCN(c2cc(-c3ccccc3O)nnc2N)CCN1c1ccnc(C#CCn2cncn2)c1C#N	> 5000 nM

## Task // query DC50 value for entry Nc1nnc(-c2ccccc2O)cc1N1CCN(c2ccnc(C#CCNC(=O)c3cc4ncccn4n3)n2)CC1
## Result < 50 nM

## Task Now the molecule Nc1nnc(-c2ccccc2O)cc1N1CC2CCC(C1)N2c1ccnc(C#CCCNC(=O)c2cc3ncccn3n2)n1
## Result 50 to 500 nM

## Task Now the molecule CC1CCN(c2cc(-c3ccccc3O)nnc2N)CCN1c1ccnc(C#CCN)n1 (stereo not shown)
## Result 500 to 5000 nM

## Task Now the molecule Nc1nnc(-c2ccccc2O)cc1N1CCN(c2ccnc(C#CCNC(=O)c3cnn4cccc(F)c34)n2)CC1
## Result 50 to 500 nM

## Task Now the molecule Nc1nnc(-c2ccccc2O)cc1N1CC2CCC(C1)N2c1ccnc(C#CC2(NC(=O)c3cc4ncccn4n3)CC2)n1
## Result 50 to 500 nM

## Task Now the molecule C[C@@H]1CCN(c2cc(-c3ccccc3O)nnc2N)CCN1c1ccnc(C#CCn2cccn2)n1
## Result 50 to 500 nM
